biological target: 5-hydroxytryptamine receptor 2A (Homo sapiens, UniProt P28223); test: Intrinsic activity at human 5HT2A receptor expressed in CHO cells assessed as myo-[3H]inositol turnover relative to 5-hydroxytryptamine; type: functional, cell-based
Sequence (P28223 whole entry): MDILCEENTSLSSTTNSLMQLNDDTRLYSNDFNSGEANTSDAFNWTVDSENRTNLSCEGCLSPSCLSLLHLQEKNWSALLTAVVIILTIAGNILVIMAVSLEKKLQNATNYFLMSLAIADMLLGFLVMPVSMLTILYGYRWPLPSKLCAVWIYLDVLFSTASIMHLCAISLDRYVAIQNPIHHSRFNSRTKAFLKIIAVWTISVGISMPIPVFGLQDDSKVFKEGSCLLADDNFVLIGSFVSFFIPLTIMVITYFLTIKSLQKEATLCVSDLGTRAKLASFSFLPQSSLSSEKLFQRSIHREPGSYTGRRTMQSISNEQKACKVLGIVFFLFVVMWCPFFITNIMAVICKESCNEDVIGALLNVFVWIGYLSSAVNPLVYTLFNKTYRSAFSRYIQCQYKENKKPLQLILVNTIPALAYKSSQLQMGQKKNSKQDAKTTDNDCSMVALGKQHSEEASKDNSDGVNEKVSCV
RECORDED ENDPOINT: Emax (%)

COMPOUND STRUCTURE STRING	RESULT VALUE
Clc1c(Br)ccc2c1CCNCC2	32
Clc1ccc2c(c1Cl)CCNCC2	27
N#Cc1ccc2c(c1Cl)CCNCC2	23
c1cc2ccc3c(c2o1)CCNCC3	40
O=[N+]([O-])c1ccc2c(c1Cl)CCNCC2	38
CN1CCc2ccc([N+](=O)[O-])c(Cl)c2CC1	7
CNc1ccc2c(c1Cl)CCNCC2	90
c1cc2c3c(ccc2o1)CCNCC3	47
COc1ccc2c(c1Cl)CCNCC2	56
Fc1ccc2c(c1Cl)CCNCC2	26

* * *

species: Homo sapiens; assay: Selectivity for human 5HT2C receptor over human 5HT2B receptor

COMPOUND STRUCTURE STRING	Ratio Ki
COc1ccc2c(c1Cl)CCNCC2	4
CN1CCc2ccc([N+](=O)[O-])c(Cl)c2CC1	5
c1cc2c3c(ccc2o1)CCNCC3	5
Clc1c(Br)ccc2c1CCNCC2	10
CNc1ccc2c(c1Cl)CCNCC2	5
N#Cc1ccc2c(c1Cl)CCNCC2	13
CCc1cc2c(ccc3cnn(C[C@H](C)N)c32)o1	2.8

* * *

target: Serotonin 2 receptors; 5-HT2a & 5-HT2c (Homo sapiens) (UniProt P28223+P28335); assay: Selectivity for human 5HT2C receptor over human 5HT2A receptor
Sequence (P28223 whole entry, looked up): as the sequence (P28223 whole entry) above
Sequence (P28335 whole entry, looked up): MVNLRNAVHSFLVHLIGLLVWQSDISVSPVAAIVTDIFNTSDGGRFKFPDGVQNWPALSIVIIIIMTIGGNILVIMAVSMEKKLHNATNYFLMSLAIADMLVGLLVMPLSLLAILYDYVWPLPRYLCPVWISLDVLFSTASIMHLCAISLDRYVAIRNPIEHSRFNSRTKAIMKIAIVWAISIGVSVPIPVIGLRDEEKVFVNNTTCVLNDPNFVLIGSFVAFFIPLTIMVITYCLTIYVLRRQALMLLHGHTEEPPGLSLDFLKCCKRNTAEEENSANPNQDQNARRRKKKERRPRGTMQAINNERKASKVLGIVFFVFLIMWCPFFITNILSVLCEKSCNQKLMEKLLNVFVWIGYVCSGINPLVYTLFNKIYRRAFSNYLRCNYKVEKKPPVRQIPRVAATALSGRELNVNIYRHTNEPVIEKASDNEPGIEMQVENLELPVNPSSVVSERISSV
In this section we review reported Ratio Ki values for a set of molecules.

COMPOUND STRUCTURE STRING	Ratio Ki
Clc1c(Br)ccc2c1CCNCC2	4
c1cc2ccc3c(c2o1)CCNCC3	4
CNc1ccc2c(c1Cl)CCNCC2	2
O=[N+]([O-])c1ccc2c(c1Cl)CCNCC2	4
CN1CCc2ccc([N+](=O)[O-])c(Cl)c2CC1	6
Clc1ccc2c(c1Cl)CCNCC2	11
c1cc2c3c(ccc2o1)CCNCC3	2
COc1ccc2c(c1Cl)CCNCC2	3

* * *

molecular target: UniProt:P28335; test: Intrinsic activity at human 5HT2C receptor expressed in CHO cells assessed as myo-[3H]inositol turnover relative to 5-hydroxytryptamine; assay type: functional, cell-based

COMPOUND STRUCTURE STRING	ASSAY SYSTEM	Emax, %
Clc1ccc2c(c1Cl)CCNCC2	UniProt:P28335	87
Clc1c(Br)ccc2c1CCNCC2	UniProt:P28335	71
CN1CCc2ccc([N+](=O)[O-])c(Cl)c2CC1	UniProt:P28335	85
Fc1ccc2c(c1Cl)CCNCC2	UniProt:P28335	80
c1cc2c3c(ccc2o1)CCNCC3	UniProt:P28335	82
c1cc2ccc3c(c2o1)CCNCC3	UniProt:P28335	57
O=[N+]([O-])c1ccc2c(c1Cl)CCNCC2	UniProt:P28335	86
COc1ccc2c(c1Cl)CCNCC2	UniProt:P28335	88
N#Cc1ccc2c(c1Cl)CCNCC2	UniProt:P28335	81
CNc1ccc2c(c1Cl)CCNCC2	UniProt:P28335	81

* * *

Record type: pKi measurement. Applies to: UniProt P28335
pKi: −log10 of the molar value.

COMPOUND STRUCTURE STRING	pKi
N#Cc1ccc2c(c1Cl)CCNCC2	8.29
CNc1ccc2c(c1Cl)CCNCC2	7.34
Clc1c(Br)ccc2c1CCNCC2	8.62
O=[N+]([O-])c1ccc2c(c1Cl)CCNCC2	7.85
Fc1ccc2c(c1Cl)CCNCC2	7.37
c1cc2ccc3c(c2o1)CCNCC3	7.64
COc1ccc2c(c1Cl)CCNCC2	7.70
CN1CCc2ccc([N+](=O)[O-])c(Cl)c2CC1	7.18
c1cc2c3c(ccc2o1)CCNCC3	7.70
Clc1ccc2c(c1Cl)CCNCC2	8.06
